assay: Single-dose toxicokinetic study, plasma HCQ (Example 10); conditions: female, mouse, in vivo, 16 sprays
OBSERVED PROPERTY: concentration at 1 h (µg/mL)
Field: numeric (µg/mL). Do not append units.

Q: Query: concentration at 1 h; subject: CCN(CCO)CCCC(C)Nc1ccnc2cc(Cl)ccc12 (stereo not shown) [HCQ, Hydroxychloroquine]
Ans: 0.0402

---

test: Single-dose toxicokinetic study, plasma HCQ (Example 10); conditions: female, mouse, in vivo, 16 sprays
OBSERVED PROPERTY: Kp at 0.083 h
# respond with the number and nothing more

Q: Query: Kp at 0.083 h; subject: CCN(CCO)CCCC(C)Nc1ccnc2cc(Cl)ccc12 (stereo not shown) [HCQ, Hydroxychloroquine]
Ans: 66.3
